Give measured pKd for each item. Keep answers brief.
Biological target: T1, Human ST2 (human, UniProt Q01638 19-328, limits assumed)
T1 construct: also called human ST2 protein; Interleukin 1 receptor-like 1
T1 sequence (looked up): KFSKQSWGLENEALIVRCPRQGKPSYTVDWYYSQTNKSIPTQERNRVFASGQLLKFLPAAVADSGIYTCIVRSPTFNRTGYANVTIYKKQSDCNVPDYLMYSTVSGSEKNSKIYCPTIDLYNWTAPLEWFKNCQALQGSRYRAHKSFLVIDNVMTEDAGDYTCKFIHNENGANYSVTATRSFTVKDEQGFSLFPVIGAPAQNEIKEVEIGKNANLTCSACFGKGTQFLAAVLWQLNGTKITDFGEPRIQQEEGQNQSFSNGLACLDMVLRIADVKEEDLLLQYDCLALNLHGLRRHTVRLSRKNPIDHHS
Test: SPR (Carterra), antibody immobilized, ST2 analyte
Answers are plain numbers, as −log10 of the molar value.

List the reported pKd of each binder below.
1. Human ST2 IgG1 Antibody 91 (antibody, V domains shown, IgG1; also called ST2 Antibody 91) VH: EVQLLESGGGLVKPGGSLRLSCAASGFTFSSYWMSWVRQAPGKGLEWVSVIYSGGSTYYADSVKGRFTISRDDSKNTLYLQMNSLKTEDTAVYYCARGLGWFDPWGQGTLVTVSS VL: DIQMTQSPSSLSASVGDRVTITCQANQHIGNSLNWYQQKPGKAPKLLIFAASRLQSGVPSRFSGSGSGTDFTLTISSLQPEDFATYYCQQSYGTPLTFGGGTKVEIKR
2. Human ST2 IgG1 Antibody 1 (antibody, V domains shown, IgG1; also called ST2 Antibody 1) VH: QVQLVQSGAEVKKPGSSVKVSCKASGGTFSSYAISWVRQAPGQGLEWMGGIIPIFGTANYAQKFQGRVTITADESTSTAYMELSSLRSEDTAVYYCAKSILGGRIFGGYFDLWGRGTLVTVSS VL: DIVMTQSPLSLPVTPGEPASISCRSSQSLLHSNGYNYLDWYLQKPGQSPQLLIYAASSLQSGVPDRFSGSGSGTDFTLKISRVEAEDVGVYYCMQALQTPPTFGQGTKVEIKR

1. 6.59
2. 6.21

Field: pKd. Fill in for each record below.
1. Human ST2 IgG1 Antibody 71 (antibody, V domains shown, IgG1; also called ST2 Antibody 71) VH: QVQLVQSGAEVKKPGASVKVSCKASGGTFSNYGVSWVRQAPGQGLEWMGGINPSRGTTTYAQKFQGRVTMTRDTSTSTVYMELSSLRSEDTAVYYCAKGDIVVVPAAMFSLGPGYYYYMDVWGKGTTVTVSS VL: DIQMTQSPSSLSASVGDRVTITCRASQSISSYLNWYQQKPGKAPKLLIYAASSLQSGVPSRFSGSGSGTDFTLTISSLQPEDFATYYCQQANSFPITFGQGTKLEIKR
2. Human ST2 IgG1 Antibody 93 (antibody, V domains shown, IgG1; also called ST2 Antibody 93) VH: QVQLVQSGAEVKKPGSSVKVSCKASGGTFSTYAISWVRQAPGQGLEWMGGIIPSFNAPSYAQKFQGRVTITADKSTSTAYMELSSLRSEDTAVYYCARVVPAAIVGWYFDLWGRGTLVTVSS VL: DIVMTQSPLSLPVTPGEPASISCRSSQSLLHSNGYNYLDWYLQKPGQSPQLLIYAASTLQTGVPDRFSGSGSGTDFTLKISRVEAEDVGVYYCMQALQTPPTFGQGTKVEIKR

6.04
6.14

Please report pKd for every entry that follows.
1. Human ST2 IgG1 Antibody 99 (antibody, V domains shown, IgG1; also called ST2 Antibody 99) VH: EVQLLESGGGLVQPGGSLRLSCAASGFTFSDYYMNWVRQAPGKGLEWVSTISGFGESTFYADSVKGRFTISRDNSKNTLYLQMNSLRAEDTAVYYCARLGAARAFDIWGQGTTVTVSS VL: DIQMTQSPSSLSASVGDRVTITCRASQSIGSWMAWYQQKPGKAPKLLIYAASTLQSGVPSRFSGSGSGTDFTLTISSLQPEDFATYYCQQSYTTPITFGPGTKVDIKR
2. Human ST2 IgG1 Antibody 61 (antibody, V domains shown, IgG1; also called ST2 Antibody 61) VH: QVQLVQSGAEVKKPGSSVKVSCKASGGTFSNYAISWVRQAPGQGLEWMGGIIPVFGTATYAQKFQGRVTITADESTSTAYMELSSLRSEDTAVYYCARVTAMGVGWYFDLWGRGTLVTVSS VL: DIVMTQSPLSLPVTPGEPASISCRSSQSLLHSNGYNYLDWYLQKPGQSPQLLIYAASSLQSGVPDRFSGSGSGTDFTLKISRVEAEDVGVYYCMQSLQTPPTFGQGTKLEIKR
3. Human ST2 IgG1 Antibody 74 (antibody, V domains shown, IgG1; also called ST2 Antibody 74) VH: EVQLLESGGGLVQPGGSLRLSCAASGFTFSSYWMSWVRQAPGKGLEWVSSISSSSSYIYYADSVKGRFTISRDNSKNTLYLQMNSLRAEDTAVYYCARDQGWFDPWGQGTLVTVSS VL: DIQMTQSPSSLSASVGDRVTITCRASRAIGNNLSWYQQKPGKAPKLLIYTASSLQSGVPSRFSGSGSGTDFTLTISSLQPEDFATYYCQQSYSTPYTFGQGTKVEIKR
4. Human ST2 IgG1 Antibody 12 (antibody, V domains shown, IgG1; also called ST2 Antibody 12) VH: QVQLVQSGAEVKKPGASVKVSCKASGYTFTGYYMHWVRQAPGQGLEWMGIIDPSGGGTSYAQKFQGRVTMTRDTSTSTVYMELSSLRSEDTAVYYCAKDIVVVPAAIANYYYGMDVWGQGTTVTVSS VL: DIQMTQSPSSLSASVGDRVTITCRVSQGISNYLNWYQQKPGKAPKLLIYGASTLQSGVPSRFSGSGSGTDFTLTISSLQPEDFATYYCQQSYSTPWTFGPGTKVDIKR

1: 6.72; 2: 6.25; 3: 7.22; 4: 6.66

Could you tell me pKd for each of these binders? They are listed below.
1. Human ST2 IgG1 Antibody 8 (antibody, V domains shown, IgG1; also called ST2 Antibody 8) VH: QVQLVQSGAEVKKPGASVKVSCKASGGTFSSYAISWVRQAPGQGLEWMGWISPDNGNTNYAQKLQGRVTMTRDTSTSTVYMELSSLRSEDTAVYYCARLAYDTGYYYYYYMDVWGKGTTVTVSS VL: DIVMTQSPLSLPVTPGEPASISCRSSQSLLHSNGYNYLDWYLQKPGQSPQLLIYAASTLQSGVPDRFSGSGSGTDFTLKISRVEAEDVGVYYCMQGTHWPLTFGQGTKVEIKR
2. Human ST2 IgG1 Antibody 10 (antibody, V domains shown, IgG1; also called ST2 Antibody 10) VH: QVQLVQSGAEVKKPGSSVKVSCKASGGTFGYYAISWVRQAPGQGLEWMGGIIPMVGTGQYAQEFQGRVTITADESTSTAYMELSSLRSEDTAVYYCAGVEVGATRGYFQHWGQGTLVTVSS VL: DIVMTQSPLSLPVTPGEPASISCRSSQSLLHSNGYNYLDWYLQKPGQSPQLLIYAASTLQSGVPDRFSGSGSGTDFTLKISRVEAEDVGVYYCMQGTHWPTTFGQGTRLEIKR

[6.82, 6.88]
